These measurements were taken from the supplement of paper PMC11908140.

B1: library; numbered along this chain (parent)
chain: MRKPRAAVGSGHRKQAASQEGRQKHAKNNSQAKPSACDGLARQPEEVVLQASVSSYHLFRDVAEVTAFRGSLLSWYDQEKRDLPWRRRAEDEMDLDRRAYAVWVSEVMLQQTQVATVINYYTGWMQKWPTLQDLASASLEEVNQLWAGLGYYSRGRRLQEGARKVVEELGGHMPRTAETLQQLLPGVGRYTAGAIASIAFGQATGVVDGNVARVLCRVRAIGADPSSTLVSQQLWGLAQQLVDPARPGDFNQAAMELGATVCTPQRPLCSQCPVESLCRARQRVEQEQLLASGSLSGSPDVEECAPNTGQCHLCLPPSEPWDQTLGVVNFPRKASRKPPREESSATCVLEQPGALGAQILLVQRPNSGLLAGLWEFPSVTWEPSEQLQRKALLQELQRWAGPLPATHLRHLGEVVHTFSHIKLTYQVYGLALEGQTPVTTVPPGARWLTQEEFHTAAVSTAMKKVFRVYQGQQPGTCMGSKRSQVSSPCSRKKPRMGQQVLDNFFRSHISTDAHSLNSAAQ

variants of: B1; assay: 8OG:A repair function score (normalized; synonymous = 0, nonsense = -1) (normalized log-likelihood score); higher = more repair activity (WT-like); details: with 8OG:A DNA repair reporter (GFP) in HEK-293 MUTYH KO cells;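 further: cells sorted at 72 h after reporter transfection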
Param threshold (-0.2) applies to 8OG:A repair function score; output met when value >= threshold, not met when value < threshold.

[
  {
    "MUTATION ID": "L241R",
    "DISCRETE LABEL": "not met"
  },
  {
    "MUTATION ID": "V207W",
    "DISCRETE LABEL": "not met"
  },
  {
    "MUTATION ID": "Q426C",
    "DISCRETE LABEL": "met"
  },
  {
    "MUTATION ID": "K492G",
    "DISCRETE LABEL": "met"
  },
  {
    "MUTATION ID": "V348N",
    "DISCRETE LABEL": "not met"
  },
  {
    "MUTATION ID": "E140K",
    "DISCRETE LABEL": "met"
  },
  {
    "MUTATION ID": "N210Q",
    "DISCRETE LABEL": "not met"
  },
  {
    "MUTATION ID": "S419K",
    "DISCRETE LABEL": "met"
  },
  {
    "MUTATION ID": "Q159E",
    "DISCRETE LABEL": "not met"
  },
  {
    "MUTATION ID": "A36V",
    "DISCRETE LABEL": "met"
  }
]

Determine whether measured 8OG:A repair function score meets or exceeds -0.2 for S483T
met

Determine whether measured 8OG:A repair function score meets or exceeds -0.2 for E375H
not met

Determine whether measured 8OG:A repair function score meets or exceeds -0.2 for F453M
not met

Determine whether measured 8OG:A repair function score meets or exceeds -0.2 for Q358V
met

Determine whether measured 8OG:A repair function score meets or exceeds -0.2 for H410G
not met

Determine whether measured 8OG:A repair function score meets or exceeds -0.2 for P225R
met

Determine whether measured 8OG:A repair function score meets or exceeds -0.2 for P174D
not met
